# TARGET DESC: ZFP SBS#1190 (synthetic)
# Sequence (chain, as listed by the source): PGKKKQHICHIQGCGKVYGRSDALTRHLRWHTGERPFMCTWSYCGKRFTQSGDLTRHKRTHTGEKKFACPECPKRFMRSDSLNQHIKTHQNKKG
# ASSAY TEXT: EMSA
# EXPERIMENTAL CONTEXT: tags: MBP fusion
ENDPOINT: Kd (nM)
Just the number please, in nM, no unit attached.

Return reported Kd; argument: ATGGCAGTG (dsDNA) DNA 1: ATGGCAGTG DNA 2: CACTGCCAT
1.48
